# methodSummary: Cytotoxicity, minimum toxic dose in Vero cells (Example 1)
# Assay type: cell-based, African green monkey
# settings: monkey; Vero cells, Example 1, 48-hour culture; read-out: MTD (minimum toxic dose which caused the cytotoxicity)
endpointLabel: MCC at 48 h (µg/mL)
Your answer is read as µg/mL, so omit the unit and give the number.

Query string: Endpoint output: MCC at 48 h of O=c1[nH]c(=O)n([C@H]2C[C@H](O)[C@@H](CO)O2)cc1F [5-fluoro-2'-deoxyuridine, reference compound] . Value?
Result string: 0.1

====

# System: herpes simplex type I virus (KOS strain)
# methodSummary: Plaque reduction in herpes simplex type I infected Vero cells (Example 1, 1,000 pfu/ml)
# Type: cell-based
# settings: Human alphaherpesvirus 1, HSV-1 KOS 1,000 pfu/ml, 48-hour culture, read-out: ED50 (effective dose which suppressed the formation of plaques by 50% in number)
Threshold 0.05 µg/mL. EC50 below it: TRUE. EC50 at it or above: FALSE.

Query string: Does this compound meet the criterion EC50 < 0.05 µg/mL? O=c1[nH]c(=O)n([C@H]2C[C@H](O)[C@@H](CO)O2)cc1F [5-fluoro-2'-deoxyuridine, reference compound]
Result string: TRUE

Query string: Does this compound meet the criterion EC50 < 0.05 µg/mL? CCCCCCCCCCCCCCCC(=O)OC[C@H]1O[C@@H](n2cc(F)c(=O)[nH]c2=O)C[C@@H]1OC(=O)CCCCCCCCCCCCCCC
Result string: FALSE

Query string: Does this compound meet the criterion EC50 < 0.05 µg/mL? Nc1nc2c(ncn2COCCO)c(=O)[nH]1 [9-(2-hydroxyethoxymethyl)guanine, reference compound]
Result string: FALSE

Query string: Does this compound meet the criterion EC50 < 0.05 µg/mL? CCCCCCCCCCCC(=O)OC[C@H]1O[C@@H](n2cc(F)c(=O)[nH]c2=O)C[C@@H]1OC(=O)CCCCCCCCCCC
Result string: FALSE

====

# methodSummary: Cytotoxicity, minimum toxic dose in Vero cells (Example 1)
# Format: cell-based, African green monkey
# settings: monkey, vero cells
endpointLabel: MCC at 48 h (µg/mL)
Your answer is read as µg/mL, so omit the unit and give the number.

Query string: Endpoint output: MCC at 48 h of CCCCCCCCCCCCCCCC(=O)OC[C@H]1O[C@@H](n2cc(F)c(=O)[nH]c2=O)C[C@@H]1OC(=O)CCCCCCCCCCCCCCC . Value?
Result string: 150

Query string: Endpoint output: MCC at 48 h of CCCCCCCCCCCCCC(=O)OC[C@H]1O[C@@H](n2cc(F)c(=O)[nH]c2=O)C[C@@H]1OC(=O)CCCCCCCCCCCCC . Value?
Result string: 100

Query string: Endpoint output: MCC at 48 h of Nc1nc2c(ncn2COCCO)c(=O)[nH]1 [9-(2-hydroxyethoxymethyl)guanine, reference compound] . Value?
Result string: 1000

Query string: Endpoint output: MCC at 48 h of CCCCCCCCCCCC(=O)OC[C@H]1O[C@@H](n2cc(F)c(=O)[nH]c2=O)C[C@@H]1OC(=O)CCCCCCCCCCC . Value?
Result string: 100

====

# Tested on: herpes simplex type I virus (KOS strain)
# methodSummary: Plaque reduction in herpes simplex type I infected Vero cells (Example 1, 1,000 pfu/ml)
# Assay type: cell-based
# settings: HSV-1 KOS 1,000 pfu/ml, 2880 min
endpointLabel: Therapeutic index MTD/ED50

Query string: Endpoint output: Therapeutic index MTD/ED50 of CCCCCCCCCCCCCC(=O)OC[C@H]1O[C@@H](n2cc(F)c(=O)[nH]c2=O)C[C@@H]1OC(=O)CCCCCCCCCCCCC . Value?
Result string: 2,000

Query string: Endpoint output: Therapeutic index MTD/ED50 of CCCCCCCCCCCC(=O)OC[C@H]1O[C@@H](n2cc(F)c(=O)[nH]c2=O)C[C@@H]1OC(=O)CCCCCCCCCCC . Value?
Result string: 1,900

Query string: Endpoint output: Therapeutic index MTD/ED50 of CCCCCCCCCCCCCCCC(=O)OC[C@H]1O[C@@H](n2cc(F)c(=O)[nH]c2=O)C[C@@H]1OC(=O)CCCCCCCCCCCCCCC . Value?
Result string: 2,000

Query string: Endpoint output: Therapeutic index MTD/ED50 of Nc1nc2c(ncn2COCCO)c(=O)[nH]1 [9-(2-hydroxyethoxymethyl)guanine, reference compound] . Value?
Result string: 1,000

Query string: Endpoint output: Therapeutic index MTD/ED50 of O=c1[nH]c(=O)n([C@H]2C[C@H](O)[C@@H](CO)O2)cc1F [5-fluoro-2'-deoxyuridine, reference compound] . Value?
Result string: 10

# credit: patent US4868162A
